SYSTEM NAME: Growth hormone secretagogue receptor type 1 (Homo sapiens); further: assay procedure not described here
Sequence (Q92847 whole entry): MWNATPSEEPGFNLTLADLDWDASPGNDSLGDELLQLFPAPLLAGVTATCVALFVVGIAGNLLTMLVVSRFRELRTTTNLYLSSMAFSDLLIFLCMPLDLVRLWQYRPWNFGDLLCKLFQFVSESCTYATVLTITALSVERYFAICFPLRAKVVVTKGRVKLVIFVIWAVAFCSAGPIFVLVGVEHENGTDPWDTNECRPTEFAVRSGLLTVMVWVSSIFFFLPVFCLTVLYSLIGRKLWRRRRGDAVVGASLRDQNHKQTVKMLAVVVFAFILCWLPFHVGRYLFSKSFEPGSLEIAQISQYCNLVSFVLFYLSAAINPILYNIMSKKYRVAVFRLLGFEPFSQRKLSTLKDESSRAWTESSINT
We begin with a simple list: items and their reported AC50.

If you can, please state the reported AC50 value of `CCCC(CCC)C(=O)O[C@H]1C[C@H]2CC[C@@H](C1)[N+]2(C)C` .
> 30 µM

---

SYSTEM NAME: Alpha-2B adrenergic receptor (Homo sapiens); further: assay procedure not described here
Sequence (P18089 whole entry): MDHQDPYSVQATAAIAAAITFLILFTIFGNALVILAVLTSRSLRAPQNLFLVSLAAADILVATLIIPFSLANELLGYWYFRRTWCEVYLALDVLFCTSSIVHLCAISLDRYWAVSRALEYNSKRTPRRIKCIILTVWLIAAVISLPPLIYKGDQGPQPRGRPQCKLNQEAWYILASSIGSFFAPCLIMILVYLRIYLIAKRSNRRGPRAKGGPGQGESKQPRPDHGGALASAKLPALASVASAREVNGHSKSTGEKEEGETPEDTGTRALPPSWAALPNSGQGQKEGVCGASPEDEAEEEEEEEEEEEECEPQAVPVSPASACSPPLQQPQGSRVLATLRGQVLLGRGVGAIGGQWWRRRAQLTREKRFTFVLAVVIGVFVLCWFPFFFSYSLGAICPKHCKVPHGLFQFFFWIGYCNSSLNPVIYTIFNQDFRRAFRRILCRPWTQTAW
// reported AC50 for each item listed

Recorded results for 7 compounds are shown here.
{"COMPOUND": "CN1CCCC(n2nc(Cc3ccc(Cl)cc3)c3ccccc3c2=O)CC1 (stereo not drawn)", "ENDPOINT LABEL": "AC50", "REPORTED RESULT": "3.8 µM"}
{"COMPOUND": "COc1cc2c(cc1OC)C(=O)C(CC1CCN(Cc3ccccc3)CC1)C2 (stereo not drawn)", "ENDPOINT LABEL": "AC50", "REPORTED RESULT": "> 10 µM"}
{"COMPOUND": "CC(C(=O)O)c1ccc(C(=O)c2cccs2)cc1 (stereo not drawn)", "ENDPOINT LABEL": "AC50", "REPORTED RESULT": "> 10 µM"}
{"COMPOUND": "COC(=O)[C@@H]1CC2=CC(=O)CC[C@]2(C)[C@@]23O[C@@H]2C[C@@]2(C)[C@@H](CC[C@@]24CCC(=O)O4)[C@H]13", "ENDPOINT LABEL": "AC50", "REPORTED RESULT": "> 30 µM"}
{"COMPOUND": "CN1CCN(C(=O)OC2c3nccnc3C(=O)N2c2ccc(Cl)cn2)CC1 (stereo not drawn)", "ENDPOINT LABEL": "AC50", "REPORTED RESULT": "> 30 µM"}
{"COMPOUND": "CO/N=C(\\C(=O)N[C@@H]1C(=O)N2C(C(=O)OCOC(=O)C(C)(C)C)=C(C)CS[C@H]12)c1csc(N)n1", "ENDPOINT LABEL": "AC50", "REPORTED RESULT": "> 30 µM"}
{"COMPOUND": "CN(C)C(=O)OC1N=C(c2ccccc2)c2cc(Cl)ccc2N(C)C1=O (stereo not drawn)", "ENDPOINT LABEL": "AC50", "REPORTED RESULT": "> 10 µM"}

I am curious: what AC50 value has been reported for `CN1C(=O)CC(=O)N(c2ccccc2)c2cc(Cl)ccc21` ?
> 10 µM

---

SYSTEM NAME: D(1A) dopamine receptor (Homo sapiens)
Sequence (P21728 whole entry): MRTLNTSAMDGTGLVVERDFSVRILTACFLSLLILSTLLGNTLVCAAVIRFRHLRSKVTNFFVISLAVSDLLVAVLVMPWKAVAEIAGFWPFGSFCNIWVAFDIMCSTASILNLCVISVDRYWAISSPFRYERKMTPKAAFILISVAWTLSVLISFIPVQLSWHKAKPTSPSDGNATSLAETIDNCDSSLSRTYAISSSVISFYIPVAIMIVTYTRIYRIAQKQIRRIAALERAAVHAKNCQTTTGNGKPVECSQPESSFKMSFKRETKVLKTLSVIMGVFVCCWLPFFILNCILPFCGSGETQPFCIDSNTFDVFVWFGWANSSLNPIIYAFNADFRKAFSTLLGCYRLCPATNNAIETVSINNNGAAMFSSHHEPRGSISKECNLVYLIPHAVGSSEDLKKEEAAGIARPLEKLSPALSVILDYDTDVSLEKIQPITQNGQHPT
Assay type: functional, cell-based
ENDPOINT LABEL: AC50

{"MOLECULE": "O=C1CCC(N2C(=O)c3ccccc3C2=O)C(=O)N1 (centres undefined) [THALIDOMIDE]", "AC50": "> 10 µM"}

I'm curious: which AC50 was measured for C[C@]12CCC(=O)C=C1CC[C@@H]1[C@@H]2CC[C@@]2(C)[C@H]1CC[C@]2(C)O [METHYLTESTOSTERONE] tested on D(1A) dopamine receptor (Homo sapiens)?
> 30 µM

Notebook: pull reported AC50 for D(1A) dopamine receptor (Homo sapiens), entry CN1CCN(C(=O)OC2c3nccnc3C(=O)N2c2ccc(Cl)cn2)CC1 (centres undefined) [ZOPICLONE]
> 10 µM

D(1A) dopamine receptor (Homo sapiens) / AC50 / NC(=O)c1ncn([C@@H]2O[C@H](CO)[C@@H](O)[C@H]2O)c1O [MIZORIBINE] : value?
> 30 µM

Give the reported AC50 for NS(=O)(=O)c1cc(Cl)c(Cl)c(S(N)(=O)=O)c1 [DICHLORPHENAMIDE] (system: D(1A) dopamine receptor (Homo sapiens)).
> 10 µM

Entry C[N+](C)(C)CC(=O)O [BETAINE] , system D(1A) dopamine receptor (Homo sapiens): what AC50 was measured?
> 30 µM

Quick check: AC50 on D(1A) dopamine receptor (Homo sapiens), item CC(C)NNC(=O)c1ccncc1 [IPRONIAZID] ?
> 30 µM

What is its AC50 for D(1A) dopamine receptor (Homo sapiens)? Entry: O=C(O)Cc1cn(-c2ccccc2)nc1-c1ccc(Cl)cc1 [LONAZOLAC]
> 30 µM

Entry COc1ccc2cccc(CCNC(C)=O)c2c1 [AGOMELATINE] , system D(1A) dopamine receptor (Homo sapiens): what AC50 was measured?
> 10 µM

---

Quick note: these are AC50 numbers for system: D(1A) dopamine receptor (Homo sapiens)

{"MOLECULE": "CCO/N=C(\\C(=O)N[C@@H]1C(=O)N2C(C(=O)[O-])=C(Sc3nc(-c4cc[n+](C)cc4)cs3)CS[C@H]12)c1nsc(N)n1 [CEFTAROLINE]", "SYSTEM NAME": "D(1A) dopamine receptor (Homo sapiens)", "AC50": "> 30 µM"}

Recorded AC50 for CN1CCN(C(c2ccccc2)c2ccccc2)CC1 [CYCLIZINE] with D(1A) dopamine receptor (Homo sapiens), please?
14.4 µM

For D(1A) dopamine receptor (Homo sapiens), provide AC50 of COc1ccc(CCC(C)NCC(O)c2ccc(O)c([S+](C)[O-])c2)cc1 (stereo not drawn) [SULFINALOL] please.
> 30 µM

Requested read-out AC50, target or system D(1A) dopamine receptor (Homo sapiens), entry O=C1c2ccccc2C(=O)C1C(=O)C(c1ccccc1)c1ccccc1 [DIPHENADIONE]
> 30 µM

---

Reported values: AC50 for Estrogen receptor (Homo sapiens, UniProt P03372), one per item.

{"COMPOUND": "CN1CCC2=C(C1)C(c1ccccc1)c1ccccc12 (centres undefined)", "REPORTED RESULT": "> 30 µM"}
{"COMPOUND": "CC(=O)NS(=O)(=O)c1ccc(N)cc1 [SULFACETAMIDE]", "REPORTED RESULT": "> 10 µM"}
{"COMPOUND": "NC(=O)C[S+]([O-])C(c1ccccc1)c1ccccc1 (centres undefined)", "REPORTED RESULT": "> 30 µM"}
{"COMPOUND": "CC(C)C(=O)Nc1ccc([N+](=O)[O-])c(C(F)(F)F)c1 [FLUTAMIDE]", "REPORTED RESULT": "> 10 µM"}

Please state recorded AC50 (tested on Estrogen receptor (Homo sapiens, UniProt P03372)) of CC(=O)N(CC(O)CO)c1c(I)c(C(=O)NCC(O)CO)c(I)c(C(=O)NCC(O)CO)c1I (centres undefined) [IOHEXOL]; further: assay procedure not described here
Sequence (P03372 whole entry): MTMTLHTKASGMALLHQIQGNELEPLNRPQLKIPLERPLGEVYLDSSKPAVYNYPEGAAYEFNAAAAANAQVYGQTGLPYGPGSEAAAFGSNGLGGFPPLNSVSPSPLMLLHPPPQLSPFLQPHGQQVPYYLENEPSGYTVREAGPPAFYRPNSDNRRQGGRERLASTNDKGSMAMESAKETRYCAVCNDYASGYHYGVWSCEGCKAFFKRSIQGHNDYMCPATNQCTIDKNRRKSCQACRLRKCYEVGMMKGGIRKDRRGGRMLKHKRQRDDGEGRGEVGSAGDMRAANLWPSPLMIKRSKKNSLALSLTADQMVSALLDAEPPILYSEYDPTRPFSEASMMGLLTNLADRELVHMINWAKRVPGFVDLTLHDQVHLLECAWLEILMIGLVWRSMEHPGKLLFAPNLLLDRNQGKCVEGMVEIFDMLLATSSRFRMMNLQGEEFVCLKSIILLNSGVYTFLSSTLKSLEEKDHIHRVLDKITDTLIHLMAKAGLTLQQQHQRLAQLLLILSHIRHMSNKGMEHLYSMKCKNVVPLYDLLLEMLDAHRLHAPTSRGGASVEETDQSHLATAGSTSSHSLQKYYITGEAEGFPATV
> 30 µM

---

Measured AC50 of individual entries
SYSTEM NAME: 5-hydroxytryptamine receptor 3A (Homo sapiens, UniProt P46098); further: assay procedure not described here
Sequence (P46098 whole entry): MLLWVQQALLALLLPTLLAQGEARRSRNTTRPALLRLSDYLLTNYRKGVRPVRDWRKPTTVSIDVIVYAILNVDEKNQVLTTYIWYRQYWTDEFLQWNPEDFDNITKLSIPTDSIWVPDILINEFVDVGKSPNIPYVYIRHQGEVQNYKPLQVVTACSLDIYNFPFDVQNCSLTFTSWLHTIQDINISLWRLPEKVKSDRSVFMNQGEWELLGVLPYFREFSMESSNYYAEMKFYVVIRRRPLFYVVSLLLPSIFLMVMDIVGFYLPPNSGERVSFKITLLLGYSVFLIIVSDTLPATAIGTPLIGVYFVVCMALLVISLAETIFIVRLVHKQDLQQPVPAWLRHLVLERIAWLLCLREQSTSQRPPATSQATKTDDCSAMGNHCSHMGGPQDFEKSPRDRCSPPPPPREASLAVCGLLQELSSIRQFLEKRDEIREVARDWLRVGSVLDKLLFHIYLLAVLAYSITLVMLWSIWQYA
Type: functional

Worked cases, AC50 given:
{"MOLECULE": "CN1C(=O)CC(c2ccccc2)C1=O (configuration not stated) [PHENSUXIMIDE]", "ENDPOINT LABEL": "AC50", "REPORTED RESULT": "> 30 µM"}
{"MOLECULE": "Nc1ccc(/N=N/c2ccccc2)c(N)n1", "ENDPOINT LABEL": "AC50", "REPORTED RESULT": "3.3 µM"}

Fill in the blank: the reported AC50 of `C[N+](C)(C)CC(=O)O` is ____.
> 30 µM

Given the molecule NC(=O)C[S+]([O-])C(c1ccccc1)c1ccccc1 (configuration not stated) , what is its reported AC50?
> 10 µM

Dear colleague, I am looking for the recorded AC50 of the following molecule: `CN1CC[C@]23CCCC[C@H]2[C@H]1Cc1ccc(O)cc13`
> 30 µM

I am curious: what AC50 value has been reported for `Oc1ncnc2[nH]ncc12` ?
> 30 µM

---

Target or system Sodium-dependent serotonin transporter (Homo sapiens): recorded AC50 listed per item. Further: assay procedure not described here.

Below, each entry is followed by its recorded AC50 result.
{"COMPOUND": "O=C(COc1ccc(Cl)cc1)N1CCN(Cc2ccc3c(c2)OCO3)CC1 [FIPEXIDE]", "AC50": "29.2 µM"}
{"COMPOUND": "NC(=O)c1cccc2cn(-c3ccc([C@@H]4CCCNC4)cc3)nc12", "AC50": "1.17 µM"}
{"COMPOUND": "C[C@@H]1O[C@@H](OC[C@H]2O[C@@H](Oc3c(-c4ccc(OCCO)c(OCCO)c4)oc4cc(OCCO)cc(O)c4c3=O)[C@H](O)[C@@H](O)[C@@H]2O)[C@H](O)[C@H](O)[C@H]1O", "AC50": "> 30 µM"}
{"COMPOUND": "COc1cc2c(cc1OC)C(=O)C(CC1CCN(Cc3ccccc3)CC1)C2 (centres undefined)", "AC50": "> 30 µM"}
{"COMPOUND": "CC(C(=O)O)c1ccc(N2CC=CC2)c(Cl)c1 (centres undefined)", "AC50": "> 30 µM"}

Which AC50 is reported for this compound? `Nc1ccc(/N=N/c2ccccc2)c(N)n1`
> 30 µM

Reported AC50, compound `CN1CCC2=C(C1)c1ccccc1Cc1ccccc12` : ____
8.15 µM

Fill in the blank: the reported AC50 of CC(=O)OC(C)C[N+](C)(C)C (centres undefined) is ____.
> 30 µM

Dear colleague, I am looking for the recorded AC50 of the following compound: `O=C1c2ccccc2C(=O)C1C(=O)C(c1ccccc1)c1ccccc1`
> 30 µM
